- Test system: SK-OV-3 ovarian
- PROTOCOL NOTES: NCI-60 one-dose screen, 48 h
- RUN PARAMETERS: 10 µM unless noted
- Experimental: Growth inhibition of the SK-OV-3 human tumor cell line is measured as a screen for anti-cancer activity. Cells are grown in 96 well plates and exposed to the test compound for 48 hours. Compounds are tested at a single concentration, which is 10^-5 M for most compounds. The reported endpoint is percent growth (GI% or GIPRCNT), where numbers from 0 - 100% represent growth inhibition, and numbers from -100% - 0 represent cell death. For example, a value of 40 represents 60% growth inhibition. […]
Compounds without any hit were thinned out: in the full panel of roughly 83,000, 20% have a hit. The source made the active and inactive calls. How the source made its calls: active means growth percent below 10; inactive means the rest.
Labels: active, inactive

LINE NOTATION | CLASSIFICATION
Nc1ccc2c(c1)c(N)nn2C(=O)Nc1ccc(Cc2ccccc2)cc1 | inactive
O=C(Nc1ccccc1Cl)Oc1ccc(-c2ccccc2)cc1 | inactive
Cc1nn(-c2ccccc2)c(Cl)c1/C=C(/NC(=O)c1ccccc1)c1nc2ccccc2[nH]1 | inactive
S=C(c1ccc2c(c1)OCO2)N1CCN(c2ccccc2Cl)CC1 | inactive
N=C1C(c2nc(-c3ccc(Br)cc3)cs2)=C(O)CN1Cc1cccnc1 | inactive
CCc1c2c(nc3ccc(OC(=O)NCc4ccc(B5OC(C)(C)C(C)(C)O5)cc4)cc13)-c1cc3c(c(=O)n1C2)COC(=O)[C@]3(O)CC | active
CCN1CCN(c2nc(C)cc(NCc3cc(Nc4ccnc5cc(Cl)ccc45)ccc3F)n2)CC1 | inactive
O=C(NCCCNc1cc(-c2cn(-c3ccccc3)nc2-c2cccc(O)c2)ccn1)c1ccc(F)cc1 | inactive
COC(=O)c1c2c(c(C)[n+]([O-])c1C)C(=O)C(NCc1ccc(F)cc1)=CC2=O | inactive

These data points were gathered from PubChem BioAssay (NCI).
